system: A375 multi-cell spheroids with HUVEC/MSC, viability; assay: Anticancer human tumor A375 cell line growth inhibition [GQUAD]; details: second compound 0.316 µM; first compound 0.1 µM; stronger effect = lower value;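 also: spheroids exposed to compounds for seven days before readout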
experimental_endpoint: viability, T/C (%)

[
  {
    "molecule": "CC(=O)O[C@H]1C(=O)[C@@]2(C)[C@H]([C@H](OC(=O)c3ccccc3)[C@]3(O)C[C@H](OC(=O)[C@H](O)[C@@H](NC(=O)c4ccccc4)c4ccccc4)C(C)=C1C3(C)C)[C@]1(OC(C)=O)CO[C@@H]1C[C@@H]2O + CN(C)c1ccc(Nc2c3ccc(NC(=O)CCN4CCCC4)cc3nc3cc(NC(=O)CCN4CCCC4)ccc23)cc1",
    "test_result": 21.3
  },
  {
    "molecule": "CC(=O)O[C@H]1C(=O)[C@@]2(C)[C@H]([C@H](OC(=O)c3ccccc3)[C@]3(O)C[C@H](OC(=O)[C@H](O)[C@@H](NC(=O)c4ccccc4)c4ccccc4)C(C)=C1C3(C)C)[C@]1(OC(C)=O)CO[C@@H]1C[C@@H]2O + Cc1[nH]c2ccc(F)cc2c1-c1nc2c3cccnc3c3ncccc3c2[nH]1",
    "test_result": 21.9
  },
  {
    "molecule": "Nc1ccn(C2OC(CO)C(O)C2(F)F)c(=O)n1 (centres undefined) + Cc1cnc(CNC(=O)c2c(=O)c3ccc(N4CCCN(C)CC4)nc3n3c2sc2ccccc23)cn1",
    "test_result": 12.7
  },
  {
    "molecule": "CC(=O)O[C@H]1C(=O)[C@@]2(C)[C@H]([C@H](OC(=O)c3ccccc3)[C@]3(O)C[C@H](OC(=O)[C@H](O)[C@@H](NC(=O)c4ccccc4)c4ccccc4)C(C)=C1C3(C)C)[C@]1(OC(C)=O)CO[C@@H]1C[C@@H]2O + Cc1cnc(CNC(=O)c2c(=O)c3ccc(N4CCCN(C)CC4)nc3n3c2sc2ccccc23)cn1",
    "test_result": 25.9
  }
]

* * *

Catalogue of viability, T/C readings, one per entry.
tested on: A375 multi-cell spheroids with HUVEC/MSC, viability; experiment: Anticancer human tumor A375 cell line growth inhibition [GQUAD]; conditions: second compound 10 µM; first compound 0.00999 µM; stronger effect = lower value;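 also: spheroids exposed to compounds for seven days before readout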

[
  {
    "compound": "CC[C@@]1(O)C(=O)OCc2c1cc1n(c2=O)Cc2cc3c(CN(C)C)c(O)ccc3nc2-1 + CN(C)c1ccc(Nc2c3ccc(NC(=O)CCN4CCCC4)cc3nc3cc(NC(=O)CCN4CCCC4)ccc23)cc1",
    "experimental_system": "A375 multi-cell spheroids with HUVEC/MSC, viability",
    "viability, T/C (%)": 107
  },
  {
    "compound": "CCc1c2c(nc3ccc(O)cc13)-c1cc3c(c(=O)n1C2)COC(=O)[C@]3(O)CC + Cc1cnc(CNC(=O)c2c(=O)c3ccc(N4CCCN(C)CC4)nc3n3c2sc2ccccc23)cn1",
    "experimental_system": "A375 multi-cell spheroids with HUVEC/MSC, viability",
    "viability, T/C (%)": 14.6
  },
  {
    "compound": "Cc1[nH]c2ccccc2c1CCNCc1ccc(/C=C/C(=O)NO)cc1 + Cc1cnc(CNC(=O)c2c(=O)c3ccc(N4CCCN(C)CC4)nc3n3c2sc2ccccc23)cn1",
    "experimental_system": "A375 multi-cell spheroids with HUVEC/MSC, viability",
    "viability, T/C (%)": 29.1
  }
]
